Target: T1, B7-H3 on CHO-K1 cells stably transfected with B7-H3 (GenScript #M00536) (UniProt Q5ZPR3 29-534, limits assumed)
T1 sequence (looked up): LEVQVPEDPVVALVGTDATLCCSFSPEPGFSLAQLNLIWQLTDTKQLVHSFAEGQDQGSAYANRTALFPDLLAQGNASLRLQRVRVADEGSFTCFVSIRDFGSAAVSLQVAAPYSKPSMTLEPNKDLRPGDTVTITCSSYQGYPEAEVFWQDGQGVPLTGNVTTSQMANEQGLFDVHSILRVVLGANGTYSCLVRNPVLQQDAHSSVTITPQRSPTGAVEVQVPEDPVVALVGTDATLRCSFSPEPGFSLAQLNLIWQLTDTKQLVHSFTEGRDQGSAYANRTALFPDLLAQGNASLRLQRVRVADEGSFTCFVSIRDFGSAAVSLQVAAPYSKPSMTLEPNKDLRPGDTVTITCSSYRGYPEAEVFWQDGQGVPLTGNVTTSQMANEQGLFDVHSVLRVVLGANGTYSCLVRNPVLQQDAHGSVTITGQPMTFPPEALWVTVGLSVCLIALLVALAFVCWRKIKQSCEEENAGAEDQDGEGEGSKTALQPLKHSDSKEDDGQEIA
Experiment: cell-based or functional assay
Parameter: ADCC reporter assay, EC50 Value, CHOK1/B7-H3 cells (µg/mL)
Please reply with the bare figure in µg/mL and do not write the unit itself.

GET /value?item= 40633p1.1.G5 IgG (antibody, V domains shown) VH: EVQLLESGGGLVQPGGSLRLSCAASGFIVNYYGMSWVRQPPGKGLEWVSAIKQDGSEKYYADSVKGRFTISRDNSKTTLYLQMNSLRAEDTAVYYCARHWNDYSNGMNVWGQGTTVTVSS VL: QSVLTQPPSASGTPGQRVTISCSGSWSNIGSYNSHWYQKLPGTAPKLLIYTTDRRPSGVPDRFSGSKSGTSASLAISGLQSEDEADYYCGTWDDSLNVWVFGGGTKLTVL &field=ADCC reporter assay, EC50 Value, CHOK1/B7-H3 cells returns 0.18

The binder identified as 40633p1.2.A10 IgG (antibody, V domains shown) VH: EVQLLESGGGLVQPGGSLRLSCAASGFTVSYYGMSWVRQAPGKGLEWVSVIKQDGSEEYYADSVKGRFTISRDNSKNTLYLQMNSLRAEDTAVYYCARHWNDYSNGMNVWGQGTTVTVSS VL: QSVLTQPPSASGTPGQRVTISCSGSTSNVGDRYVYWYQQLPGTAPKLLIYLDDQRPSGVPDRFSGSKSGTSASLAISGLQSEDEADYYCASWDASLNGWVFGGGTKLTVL registered its ADCC reporter assay, EC50 Value, CHOK1/B7-H3 cells at 0.0471

The recorded ADCC reporter assay, EC50 Value, CHOK1/B7-H3 cells for entry 40633p1.1.G7 IgG (antibody, V domains shown) VH: EVQLLESGGGLVQPGGSLRLSCAASGFTFSGSAMNWVRQAPGKGLEWVSAINSGGTTIYYADSVKGRFTVSRDNSKNTLYLQMNSLRAEDTAVYYCVKLDFYYGMDVWGEGTTVTVSS VL: QSVVTQPPSASGTPGQRVTVSCSGSSSNVGSKYVQWYQQLPGTAPKLLIYATDRRPSGVPDRFSGSKSGTSASLAISGLQSEDEADYYCASWDDSLNAWVFGGGTKLTVL equals 0.0419

FYI, the data here is from patent US20260008852A1.
